# System: HT29 colon
# protocol.text: NCI tumour cell line growth inhibition, 48 h
TGI values for the compounds below.
measured.endpoint: TGI (µM)

COc1cc(-c2ccc(-c3ccc(C(=N)N)cc3)s2)cc(OC)c1OC = 5.56
COc1cc(OC)c2c(c1)C(=O)C(CC1(C)OCCCO1)=CC2=O = 28.9
[N-]=[N+]=Nc1c(Cc2ccccc2)c(=O)oc2ccccc12 = 54.5
C[C@@]1(Br)C[C@@](C)(Cl)[C@@H](Br)CC1/C=C/Cl (some centres not stated) = 29.6
C/C=C(\C)[C@@H](O)C(=O)O[C@@H]1CC(C(C)(C)O)[C@](C)(CCC(=O)OC)[C@H]2[C@H](OC(=O)[C@H](O)[C@H](C)CC)C[C@]3(C)C(=CC[C@H]3[C@H]3CO[C@H](C=C(C)C)C3)[C@]12C (some centres not stated) = 34.5
COC(=O)[C@@H](C)C[C@H](Cc1ccc2ccccc2c1)NC(=O)c1csc([C@@H](C[C@H](C(C)C)N(C)C(=O)[C@@H](NC(=O)[C@H]2CCCCN2C)C(C)C)OC(C)=O)n1 = 4.52

---

# System: SK-OV-3 ovarian
# protocol.text: NCI tumour cell line growth inhibition, 48 h
measured.endpoint: TGI

C=C1C(=O)O[C@H]2[C@H]1CC/C(COC(=O)/C=C/C(=O)NCc1ccc(Cn3c(=O)sn(-c4ccccc4)c3=O)cc1)=C\CC[C@@]1(C)O[C@@H]21 = > 100 µM
CC(=O)OC1C2CCC1C1C2N=NN1c1ccc([N+](=O)[O-])cc1 (centres undefined) = > 100 µM
CN(C)C1C(=O)C(C(=O)NCN2CCCC2)=C(O)C2(O)C(=O)C3=C(O)c4c(O)cccc4C(C)(O)C3CC12 (centres undefined) = > 100 µM
O=C(CC1(O)C(=O)Nc2c(Cl)ccc(Cl)c21)c1ccco1 (centres undefined) = > 74.3 µM
COc1cc(OC)c2c(c1)C(=O)C(CC1(C)OCCCO1)=CC2=O = 34.2 µM
O=[N+]([O-])c1ccc(C2=Nn3c(nnc3-c3ccccc3)SC2)o1 = > 100 µM
Cc1cc(=O)oc2cc(OCc3nc4ccccc4c(=O)n3-c3ccccc3)ccc12 = > 100 µM
CCOCCOC(=O)C1CCC(=O)N1CN(C(C)=O)c1cc(OC)ccc1OC (centres undefined) = > 100 µM
CCOC(=O)C(=O)/C(=C/n1c(=S)[nH]c2ccc([N+](=O)[O-])cc21)C(=O)OCC = > 100 µM

---

# Tested on: HT29 colon
# protocol.text: NCI tumour cell line growth inhibition, 48 h
# TGI values compiled below
measured.endpoint: TGI (µM)

c1cc2c(s1)SSSSS2 = 41.4
CCC[CH2][Sn]1([CH2]CCC)[O]C(=O)c2cccc(C)c2[O]1 = 2.97
CCN(CC)Cc1cc(Nc2c3ccc(Cl)cc3nc3ccc(OC)cc23)ccc1O = 5.03
CN(C)CCNc1ccc2nnn3c4ccccc4c(=O)c1c23 = 11
CCOC(=O)C1C(=O)C=C(c2cc(C)ccc2O)CC1c1cccc(Cl)c1 (centres undefined) = 86.7
CCOC(=O)/C=C(/C(=O)OCC)n1cc(C)c(=O)n(/C(=C/C(=O)OCC)C(=O)OCC)c1=O = 7.72
N#Cc1c(-c2ccccc2)cc(-c2ccccc2)n(CCCC(=O)NO)c1=O = 8.58
CC(=O)O[C@H]1C(=O)[C@@]2(C)[C@H]([C@H](OC(=O)c3ccccc3)[C@]3(O)C[C@H](OC(=O)[C@H](O)[C@@H](NC(=O)c4ccccc4)c4ccccc4C)C(C)=C1C3(C)C)[C@]1(OC(C)=O)CO[C@@H]1C[C@@H]2O = 18.4
